Where do these numbers come from? They come from paper PMC10006238.

Target: VirD E128Q (Streptomyces virginiae)
Assay: other fluorescence titration; tryptophan fluorescence quenching; VirC, VirD, VirD mutant or VirE at 5 μM in TE buffer (20 mM Tris-HCl pH 8.5, 2 mM EDTA), 25 °C, titrated with ACP ligand (0–150 μM); excitation 295 nm; one site-specific binding model; averaged data of two independent measurements
MEASURED ENDPOINT: Kd (µM)
Return type: number; implicit unit µM.

Endpoint output: Kd of HMG-ACP5b (domain or fragment, HMG form ((RS)-3-hydroxy-3-methylglutarate as substrate mimic on the phosphopantetheine)) GPGSAVAVDPAPVARALREELARTLYCEPGDIDDEASFNTLGLDSILGVEFVAFVNQTYGLDEKAGILYDHPSLAALSRHVAGRAAPV . Value?
33
